# systemTested: T1, soluble human CTLA-4 expressed with a C-terminal myc-myc-polyhistidine tag (human)
# T1 construct: soluble protein; also called hCTLA-4.mmh; hCTLA4.mmh
# T1 sequence (chain, as listed by the source limits assumed): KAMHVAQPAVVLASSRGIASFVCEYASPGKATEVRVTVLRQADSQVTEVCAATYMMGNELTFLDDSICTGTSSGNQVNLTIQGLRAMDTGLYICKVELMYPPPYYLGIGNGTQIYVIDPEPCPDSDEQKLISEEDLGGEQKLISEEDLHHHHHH
# assayMethodText: SPR, mAb capture, 25 C
recordedEndpoint: pKd
Scale note: pKd = -log10(concentration in M).

binder="H1H19291P (antibody, human IgG1, V domains shown) VH: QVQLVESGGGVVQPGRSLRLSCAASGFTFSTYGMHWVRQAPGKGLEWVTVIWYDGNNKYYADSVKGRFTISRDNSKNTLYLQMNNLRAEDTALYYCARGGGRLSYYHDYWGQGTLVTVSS VL: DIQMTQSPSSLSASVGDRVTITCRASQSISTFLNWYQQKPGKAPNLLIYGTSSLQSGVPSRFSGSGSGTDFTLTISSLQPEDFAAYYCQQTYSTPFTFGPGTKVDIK" recordedendpoint=pKd obsvalue=7.86
binder="H1H19312P (antibody, human IgG1, V domains shown) VH: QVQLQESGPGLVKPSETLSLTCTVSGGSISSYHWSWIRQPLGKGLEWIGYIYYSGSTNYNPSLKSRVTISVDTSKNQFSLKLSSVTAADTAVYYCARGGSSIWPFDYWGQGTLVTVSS VL: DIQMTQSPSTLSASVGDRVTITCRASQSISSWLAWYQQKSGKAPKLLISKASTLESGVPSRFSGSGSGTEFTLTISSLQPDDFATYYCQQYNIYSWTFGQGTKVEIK" recordedendpoint=pKd obsvalue=8.48
binder="H1H19280P (antibody, human IgG1, V domains shown) VH: QLQLQESGPGLVKPSETLSLTCIVSGGSTSSNTYYWGWIRQPPGKGLEWIGTIHYSGNPYYDPSLKSRVTISVDTSKNHFSLKLNSVTAADTAVYYCTRQYINFFDFWGQGTLVTVSS VL: EIVLTQSPATLSLSPGERVTLSCRASQSISRYLAWYQQKPGQAPRVLIYDASNRATDIPARFSGSGSGTDFTLTISSLEPEDFAVYYCQQRSNWPITFGQGTRLEIK" recordedendpoint=pKd obsvalue=8.99
binder="H1H19264P (antibody, human IgG1, V domains shown) VH: QVQLVQSGAEVKKPGASVKVSCKASDYTFTSYGISWVRQAPGQGLEWMGWISVYNGNINYAQKFKGRVTMTTDTSTSTAYMELRSLRSDDMAVYYCARVTQFGMDVWGQGTTVTVSS VL: DIQMTQSPSSLSASVGDRVTITCRASQSISSNLNWYQQNPGKAPKLLIYTTSSLQGGVPSRFSGSGSGTDFTLTISSLQPEDFATYYCQQSFRTPFTFGPGTKVDIK" recordedendpoint=pKd obsvalue=7.92

Value of pKd reported for the binder H1H19313P (antibody, human IgG1, V domains shown) VH: QITLKESGPTLVKPTQTLTLTCTFSGFSLSTSGVGVGWIRQPPGVALEWLALIYWNDDKRFSPSLKSRLTITKDTSKNQVVLTMTNMDPVDTATYYCAHRRLGLYYFDYWGQGTLVTVSS VL: DIQLTQSPSFLSASVGDRVTITCWASQGISSYLAWYQQKPGKAPKLLIYAASTLQSGVPSRFSGSGSGTEFTLTISSLQPEDFATYYCQQVHIYPFTFGPGTKVDIK is 8.81

Value of pKd reported for the binder H1H19273P (antibody, human IgG1, V domains shown) VH: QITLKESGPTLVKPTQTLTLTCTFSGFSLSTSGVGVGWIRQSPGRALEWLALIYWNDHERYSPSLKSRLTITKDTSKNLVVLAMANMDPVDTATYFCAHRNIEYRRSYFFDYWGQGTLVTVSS VL: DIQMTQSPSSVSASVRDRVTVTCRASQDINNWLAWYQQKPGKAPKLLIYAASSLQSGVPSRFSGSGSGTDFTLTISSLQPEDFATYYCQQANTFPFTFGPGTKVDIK is 9.02

Value of pKd reported for the binder H1H20373N (antibody, human IgG1, V domains shown, here with human IgG1 Fc (H1H)) VH: EVQLLESGGGLVQPGGSLRLSCAASGFTFSSYAMSWVRQAPGKGLEWVSDISGSGLSTYYADSVKGRFAISRDNSKNMLYLQMNRLRAEDTAVYYCAKEPSHWNGEAFDIWGQGTMVTVSS VL: DIQMTQSPSSVSASVGDRVTITCRASQDISSWLAWYQQKPGKAPKLLIYTTANLQSGVPSRFSGSGSGTDFTLTISSLQSEDFATYYCQQANSFPFTFGSGTKVDIK is 9.12

Value of pKd reported for the binder H1H19274P (antibody, human IgG1, V domains shown) VH: QVQLQESGPGLVKPSETLSLTCTVSGGSINSYYWTWIRQPPGKGLEWIGYVYYSGSTTYNPSLKSRVTISVDTSKNQFFLNLNSVTAAETAVYYCARGTLGYYGMDVWGQGTTVTVSS VL: EIVLTQSPGTLSLSPGERATLSCRASQSFSNNYLAWYQQKPGQAPRLLIYGTSIRATGIPDRFSGSGSGTDFTLAISRLEPEDFAVYYCQQYGRSPLTFGGGTKVEIK is 8.84

Value of pKd reported for the binder H1H20361N (antibody, human IgG1, V domains shown, here with human IgG1 Fc (H1H)) VH: QVQLQESGPGLVKPSQTLSLTCTVSGGSINNGGHYWTWIRQHPGKGLEWIGYIYYIGTTYYNPSLESRLSLSVDTSKNQFSLKLSSVTAADTAIYYCARSSLSVSEAFDVWGQGTMVTVSS VL: DIQMTQSPSSLSASVGDRITITCRGSQNIGSFLSWYQQRPGKAPKLLIFGAYNLQGGVPSRFSGSGSGTDFTLTISSLQPEDFATYFCQQSYSTPPITFGQGTRLEIK is 7.49
